These measurements were taken from ChEMBL document CHEMBL4828725.

biological target: Beta-glucuronidase (Escherichia coli (strain K12)) (UniProt P05804); experiment: Inhibition of Escherichia coli beta-glucuronidase using p-nitrophenyl glycoside as substrate assessed as release of p-nitrophenol at 1000 uM measured by spectrometric assay relative to control
Sequence (P05804 whole entry, looked up): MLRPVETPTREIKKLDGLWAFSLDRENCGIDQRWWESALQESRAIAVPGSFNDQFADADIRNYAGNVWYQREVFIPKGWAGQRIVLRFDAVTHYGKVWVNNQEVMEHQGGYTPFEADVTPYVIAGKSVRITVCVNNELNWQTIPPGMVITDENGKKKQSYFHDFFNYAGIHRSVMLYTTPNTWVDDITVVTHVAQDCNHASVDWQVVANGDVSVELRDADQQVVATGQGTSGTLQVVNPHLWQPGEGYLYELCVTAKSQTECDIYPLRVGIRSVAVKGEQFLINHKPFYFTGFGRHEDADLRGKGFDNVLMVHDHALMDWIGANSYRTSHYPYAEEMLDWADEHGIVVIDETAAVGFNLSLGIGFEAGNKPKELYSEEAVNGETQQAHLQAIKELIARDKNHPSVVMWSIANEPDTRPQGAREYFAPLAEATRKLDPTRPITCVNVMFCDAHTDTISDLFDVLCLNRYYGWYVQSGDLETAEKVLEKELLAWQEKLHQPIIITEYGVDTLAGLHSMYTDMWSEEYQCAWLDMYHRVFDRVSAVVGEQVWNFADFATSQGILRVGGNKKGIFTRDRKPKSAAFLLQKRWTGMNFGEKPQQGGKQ
Classify by measured inhibition: label 1 if it is equal to or exceeds 9%, label 0 if it is smaller.

CC[C@@]1(CO)NC[C@H](O)[C@@H](O)[C@@H]1O.Cl = label 0
CCCCCCCCC[C@@]1(CO)NC[C@H](O)[C@@H](O)[C@@H]1O.Cl = label 1
CCCCC[C@]1(CO)NC[C@H](O)[C@@H](O)[C@@H]1O.Cl = label 1
CCCCCCCC[C@@]1(CO)NC[C@H](O)[C@@H](O)[C@@H]1O.Cl = label 1
CCCCCCCCCCC[C@@]1(CO)NC[C@H](O)[C@@H](O)[C@@H]1O.Cl = label 0
C[C@@]1(CO)NC[C@H](O)[C@@H](O)[C@@H]1O.Cl = label 1

Would you kindly look at the next entry?
Has `CCCCCCCCCCC[C@]1(CO)NC[C@H](O)[C@@H](O)[C@@H]1O.Cl` a recorded inhibition greater than or equal to 9%?
label 1

---

Below, each of the compounds is paired with its reported log10 IC50 value.
assay: Inhibition of rat intestinal maltase using maltose as substrate assessed as release of D-glucose measured by spectrometric assay
Form field - Quantity: IC50; Unit: µM; Scale: log10

# example entries with known answers
CCCCCCCCCCCC[C@]1(CO)NC[C@H](O)[C@@H](O)[C@@H]1O.Cl = -1.15
CCCCCCCC[C@]1(CO)NC[C@H](O)[C@@H](O)[C@@H]1O.Cl = -1.72
CCCCCCCCCCCC[C@@]1(CO)NC[C@H](O)[C@@H](O)[C@@H]1O.Cl = 2.82
C[C@@]1(CO)NC[C@H](O)[C@@H](O)[C@@H]1O.Cl = 1.34
OC[C@@H]1NC[C@H](O)[C@@H](O)[C@@H]1O = 0.92

Given item `CCCC[C@@]1(CO)NC[C@H](O)[C@@H](O)[C@@H]1O.Cl` , the value recorded as its log10 IC50 is 2.04

Given item `CCCCCCCC[C@@]1(CO)NC[C@H](O)[C@@H](O)[C@@H]1O.Cl` , the value recorded as its log10 IC50 is 2.35

Given item `CCCCC[C@@]1(CO)NC[C@H](O)[C@@H](O)[C@@H]1O.Cl` , the value recorded as its log10 IC50 is 2.19

Given item `CCCCCCC[C@]1(CO)NC[C@H](O)[C@@H](O)[C@@H]1O.Cl` , the value recorded as its log10 IC50 is -1.44

Given item `C[C@]1(CO)NC[C@H](O)[C@@H](O)[C@@H]1O.Cl` , the value recorded as its log10 IC50 is -1.28

Given item `CCCCCCCCCCC[C@]1(CO)NC[C@H](O)[C@@H](O)[C@@H]1O.Cl` , the value recorded as its log10 IC50 is -1.49

Given item `CCCCCCC[C@@]1(CO)NC[C@H](O)[C@@H](O)[C@@H]1O.Cl` , the value recorded as its log10 IC50 is 1.28

---

test: Inhibition of Aspergillus niger amyloglucosidase using p-nitrophenyl glycoside as substrate assessed as release of p-nitrophenol measured by spectrometric assay
quantity.measured: IC50

# example entries with known answers
CCCCCCCC[C@]1(CO)NC[C@H](O)[C@@H](O)[C@@H]1O.Cl = Not Active
CCCC[C@@]1(CO)NC[C@H](O)[C@@H](O)[C@@H]1O.Cl = Not Active
CCCC[C@]1(CO)NC[C@H](O)[C@@H](O)[C@@H]1O.Cl = Not Active
CCCCC[C@@]1(CO)NC[C@H](O)[C@@H](O)[C@@H]1O.Cl = Not Active

Given item `CC[C@@]1(CO)NC[C@H](O)[C@@H](O)[C@@H]1O.Cl` , the value recorded as its IC50 is Not Active

Given item `C[C@]1(CO)NC[C@H](O)[C@@H](O)[C@@H]1O.Cl` , the value recorded as its IC50 is Not Active

Given item `CCCCCCC[C@]1(CO)NC[C@H](O)[C@@H](O)[C@@H]1O.Cl` , the value recorded as its IC50 is Not Active

---

Target: Tissue alpha-L-fucosidase (Bos taurus)
Sequence (whole entry): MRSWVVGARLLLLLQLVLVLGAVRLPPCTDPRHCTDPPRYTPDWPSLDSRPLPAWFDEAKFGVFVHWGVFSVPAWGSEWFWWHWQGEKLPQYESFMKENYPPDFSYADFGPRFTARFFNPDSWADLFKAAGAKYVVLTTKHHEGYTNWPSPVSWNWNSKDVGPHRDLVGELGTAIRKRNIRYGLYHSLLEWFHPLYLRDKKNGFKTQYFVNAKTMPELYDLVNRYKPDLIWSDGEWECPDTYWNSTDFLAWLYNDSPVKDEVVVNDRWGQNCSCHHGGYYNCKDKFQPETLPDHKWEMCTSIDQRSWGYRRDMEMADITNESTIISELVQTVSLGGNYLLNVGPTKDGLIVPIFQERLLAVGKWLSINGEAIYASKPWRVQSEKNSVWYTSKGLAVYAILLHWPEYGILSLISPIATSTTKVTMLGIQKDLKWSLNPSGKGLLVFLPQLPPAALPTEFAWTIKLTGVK
Experiment: Inhibition of bovine kidney alpha-L-fucosidase using p-nitrophenyl glycoside as substrate assessed as release of p-nitrophenol at 1000 uM measured by spectrometric assay relative to control
Type: tissue-based
Classify by measured inhibition: satisfied if it is equal to or exceeds 1%, not satisfied if it is smaller.

CCCCCC[C@@]1(CO)NC[C@H](O)[C@@H](O)[C@@H]1O.Cl = not satisfied
CCCCCCCCCC[C@@]1(CO)NC[C@H](O)[C@@H](O)[C@@H]1O.Cl = not satisfied
CCC[C@]1(CO)NC[C@H](O)[C@@H](O)[C@@H]1O.Cl = satisfied
CCCCCCCCCCC[C@]1(CO)NC[C@H](O)[C@@H](O)[C@@H]1O.Cl = satisfied
CCCCCC[C@]1(CO)NC[C@H](O)[C@@H](O)[C@@H]1O.Cl = satisfied
CCCC[C@@]1(CO)NC[C@H](O)[C@@H](O)[C@@H]1O.Cl = satisfied
CCCCCCCCCCC[C@@]1(CO)NC[C@H](O)[C@@H](O)[C@@H]1O.Cl = satisfied
CCCCCCCC[C@@]1(CO)NC[C@H](O)[C@@H](O)[C@@H]1O.Cl = satisfied

Has `C[C@]1(CO)NC[C@H](O)[C@@H](O)[C@@H]1O.Cl` a recorded inhibition greater than or equal to 1%?
not satisfied

Has `CCCCCCC[C@@]1(CO)NC[C@H](O)[C@@H](O)[C@@H]1O.Cl` a recorded inhibition greater than or equal to 1%?
not satisfied

Has `CCCCCCCCC[C@@]1(CO)NC[C@H](O)[C@@H](O)[C@@H]1O.Cl` a recorded inhibition greater than or equal to 1%?
satisfied

Has `CCCC[C@]1(CO)NC[C@H](O)[C@@H](O)[C@@H]1O.Cl` a recorded inhibition greater than or equal to 1%?
satisfied

---

molecular target: Alpha-mannosidase (Canavalia ensiformis) (UniProt C0HJB3); experiment: Inhibition of jack bean alpha-mannosidase using p-nitrophenyl glycoside as substrate assessed as release of p-nitrophenol at 1000 uM measured by spectrometric assay relative to control
Sequence (C0HJB3 1-562 limits assumed): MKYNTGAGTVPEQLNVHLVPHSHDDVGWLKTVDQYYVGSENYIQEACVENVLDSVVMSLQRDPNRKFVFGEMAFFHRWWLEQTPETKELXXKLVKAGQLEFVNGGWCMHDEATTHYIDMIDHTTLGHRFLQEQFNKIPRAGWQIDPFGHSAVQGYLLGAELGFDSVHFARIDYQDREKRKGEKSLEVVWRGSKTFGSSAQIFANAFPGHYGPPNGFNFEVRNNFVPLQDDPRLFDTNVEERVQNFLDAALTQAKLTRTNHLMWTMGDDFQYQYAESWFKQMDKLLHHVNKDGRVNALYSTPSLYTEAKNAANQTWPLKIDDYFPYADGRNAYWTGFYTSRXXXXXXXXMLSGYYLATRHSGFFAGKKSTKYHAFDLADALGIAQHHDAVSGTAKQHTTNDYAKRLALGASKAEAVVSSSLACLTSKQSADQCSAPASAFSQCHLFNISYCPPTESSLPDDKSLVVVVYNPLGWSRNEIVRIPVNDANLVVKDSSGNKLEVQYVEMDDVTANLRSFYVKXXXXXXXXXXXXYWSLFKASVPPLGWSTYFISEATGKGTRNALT
Sequence (C0HJB3 563-981 limits assumed): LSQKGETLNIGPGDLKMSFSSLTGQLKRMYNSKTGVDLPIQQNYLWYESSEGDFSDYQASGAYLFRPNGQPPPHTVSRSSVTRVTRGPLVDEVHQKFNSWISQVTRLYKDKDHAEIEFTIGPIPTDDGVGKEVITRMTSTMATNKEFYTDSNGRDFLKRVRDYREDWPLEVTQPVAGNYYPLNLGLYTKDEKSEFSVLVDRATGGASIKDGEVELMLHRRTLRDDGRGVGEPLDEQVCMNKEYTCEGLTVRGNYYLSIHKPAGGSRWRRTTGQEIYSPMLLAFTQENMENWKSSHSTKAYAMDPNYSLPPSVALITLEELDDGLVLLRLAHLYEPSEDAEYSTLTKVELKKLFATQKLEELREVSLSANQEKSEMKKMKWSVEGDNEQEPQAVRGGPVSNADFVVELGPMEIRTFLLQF
Classify by measured inhibition: 1 if it is equal to or exceeds 8%, -1 if it is smaller.

CCCCCCC[C@]1(CO)NC[C@H](O)[C@@H](O)[C@@H]1O.Cl = 1
CCCCC[C@@]1(CO)NC[C@H](O)[C@@H](O)[C@@H]1O.Cl = -1

Has `CCCCCC[C@]1(CO)NC[C@H](O)[C@@H](O)[C@@H]1O.Cl` a recorded inhibition greater than or equal to 8%?
-1

Has `OC[C@H]1NC[C@H](O)[C@@H](O)[C@@H]1O` a recorded inhibition greater than or equal to 8%?
1

Has `CCCCCCCCCCCC[C@@]1(CO)NC[C@H](O)[C@@H](O)[C@@H]1O.Cl` a recorded inhibition greater than or equal to 8%?
-1

Has `CCCCCCCCCCC[C@]1(CO)NC[C@H](O)[C@@H](O)[C@@H]1O.Cl` a recorded inhibition greater than or equal to 8%?
-1

Has `CCCC[C@@]1(CO)NC[C@H](O)[C@@H](O)[C@@H]1O.Cl` a recorded inhibition greater than or equal to 8%?
-1

Has `CC[C@@]1(CO)NC[C@H](O)[C@@H](O)[C@@H]1O.Cl` a recorded inhibition greater than or equal to 8%?
-1

Has `C[C@]1(CO)NC[C@H](O)[C@@H](O)[C@@H]1O.Cl` a recorded inhibition greater than or equal to 8%?
-1

Has `CCCC[C@]1(CO)NC[C@H](O)[C@@H](O)[C@@H]1O.Cl` a recorded inhibition greater than or equal to 8%?
-1

Has `CCC[C@@]1(CO)NC[C@H](O)[C@@H](O)[C@@H]1O.Cl` a recorded inhibition greater than or equal to 8%?
1

Has `CCCCCC[C@@]1(CO)NC[C@H](O)[C@@H](O)[C@@H]1O.Cl` a recorded inhibition greater than or equal to 8%?
-1
